Hey, just so you know, these numbers are from patent US5656629A.

assayed target: cGMP-PDE V (Homo sapiens, UniProt O76074)
Construct: isolated from cardiovascular tissues (heart and aorta); from tissue; host or cells: cardiovascular tissues (heart and aorta)
measurement notes: cGMP-PDE V inhibition (isozyme isolated from cardiovascular tissue)
Type: biochemical, various animal species and man
experimental conditions: 1 μM; read-out: Percent Inhibition cGMP-PDE V
# binarize inhibition at 1 µM: threshold 70% inclusive, high side MET, low side NOT MET

CCc1[nH]n(C2CCCC2)c2nc(Oc3ccccc3)nc(=O)c1-2 | MET
CCc1[nH]n(C2CCCC2)c2nc(CO)nc(=O)c1-2 | NOT MET
CCc1nn(C2CCCC2)c2nc(Cn3cnc4ccccc43)[nH]c(=O)c12 | NOT MET
CCc1[nH]n(C2CCCC2)c2nc(Cc3ccc(N(C)C)cc3)nc(=O)c1-2 | NOT MET
CCc1[nH]n(C2CCCC2)c2nc(Cc3ccccc3OC)nc(=O)c1-2 | MET
CCc1nn(C2CCCC2)c2nc(Cn3ccnc3)[nH]c(=O)c12 | NOT MET
CCc1nn(C2CCCC2)c2nc(CN3CCCc4ccccc43)[nH]c(=O)c12 | NOT MET
Cc1[nH]n(C(C)(C)C)c2nc(Cc3ccccc3)nc(=O)c1-2 | MET
CCc1[nH]n(C2CCCC2)c2nc(Cc3c(C)noc3C)nc(=O)c1-2 | NOT MET
CCc1[nH]n(C2CCCC2)c2nc(Cc3ccc(-n4ccnc4)cc3)nc(=O)c1-2 | NOT MET
CCc1[nH]n(C2CCCC2)c2nc(Cc3cccs3)nc(=O)c1-2 | MET
CCc1[nH]n(C2CCCC2)c2nc(Cc3ccccc3O)nc(=O)c1-2 | MET
CCc1[nH]n(C2CCCC2)c2nc(Cc3ccccc3N)nc(=O)c1-2 | MET
CCc1nn(C2CCCC2)c2nc(Cn3cccn3)[nH]c(=O)c12 | NOT MET
